These measurements were taken from PubChem BioAssay AID488890.

assay: growth inhibition of non-replicating M. tuberculosis (AID 488890); conditions: Mycobacterium tuberculosis non-replicating, at 25 µM, stronger effect = higher value
The whole screen tested about 320,000 compounds, of which about 1,300 (0.41%) were called active. About 3% were inconclusive and are not listed. Only a sample is shown. Entries with a potency or affinity are not part of this list.
Mark yes for reported inhibition of 10% or greater; mark no for anything smaller.

CS(=O)(=O)c1ccccc1-c1nnc(NC(=O)COc2ccc(Cl)cc2)o1
yes
CC(C)(C)c1nnc(N/N=C/c2ccc(Br)cc2)n(N)c1=O
yes

Test whether the molecule `O=C(c1cccnc1)N1CCN(S(=O)(=O)c2ccc3ccccc3c2)CC1` records inhibition of 10% or higher.
no

Thanks! And `O=C(CCOc1ccccc1)Nc1nnc(-c2ccc3c(c2)OCCO3)o1` ?
no

Another molecule to check: `Cc1nc([N+](=O)[O-])c(Br)n1CC(=O)c1cccc([N+](=O)[O-])c1`
yes

Queued: `O=C(COC(=O)Cc1ccccc1)Nc1nnc(-c2ccccc2)o1`
yes

Another molecule: `COc1ccccc1Oc1ccc(NC(=O)Cc2ccccc2)cc1`
yes

Request: `Cc1c(Br)c([N+](=O)[O-])nn1CC(=O)c1ccccc1`
no

Now consider `O=C(COc1ccccc1)Nc1nnc(-c2ccco2)o1` .
yes

Queued: `Cc1nnc(N/N=C/c2c(Cl)cccc2Cl)n1N`
yes

Would you kindly repeat that for `COC(=O)Cn1c(C)nc([N+](=O)[O-])c1Br` ?
no
